The measured values listed here are drawn from the supplement of paper PMC4932681.

Test system: BT-474
assay-method-text: relative IC50 (midpoint of fitted logistic curve, plateau may be below 50% inhibition; CellTiter-Glo viability); higher = less potent
particulars: 4-OH-tamoxifen in medium 0 µM; 72 h
Counter-ions that a name gives are not always drawn.
observation-type: relative IC50

compound="CC[C@@H]1C(=O)N(C)c2cnc(Nc3ccc(C(=O)NC4CCN(C)CC4)cc3OC)nc2N1C1CCCC1 [BI 2536]" readout_value="0.0285 µM"
compound="Nc1nc(=O)c2c([nH]1)NCC(CNc1ccc(C(=O)N[C@@H](CCC(=O)O)C(=O)O)cc1)N2C=O (mixture of isomers) [Folinic acid]" readout_value="> 990 µM"
compound="Clc1ccc(Nc2nnc(Cc3ccncc3)c3ccccc23)cc1 [Vatalanib]" readout_value="> 10 µM"
compound=COc1ncc(-c2ccc3nccc(-c4ccnnc4)c3c2)cc1NS(=O)(=O)c1ccc(F)cc1F readout_value="0.0151 µM"
compound="C[C@]12CC[C@@H]3c4ccc(OC(=O)N(CCCl)CCCl)cc4CC[C@H]3[C@@H]1CC[C@@H]2O [Estramustine]" readout_value="> 990 µM"
compound="COc1cc2c(Oc3ccc4[nH]c(C)cc4c3F)ncnc2cc1OCCCN1CCCC1 [Cediranib (AZD2171, Recentin)]" readout_value="> 1 µM"
compound="COc1ccc(-c2ccc3c(N4CCOC[C@@H]4C)nc(N4CCOC[C@@H]4C)nc3n2)cc1CO [AZD8055]" readout_value="0.0607 µM"
compound="CC(C)Cn1cnc2c(N)nc3ccccc3c21 [Imiquimod]" readout_value="> 10 µM"
compound="c1ccc([C@H]2CN3CCSC3=N2)cc1 [Levamisole, (Tetramisole hydrochloride)]" readout_value="> 10 µM"
compound="Cc1cc(Nc2nc(N[C@@H](C)c3ncc(F)cn3)ncc2Cl)[nH]n1 [AZD1480]" readout_value="> 1 µM"
compound="O=P1(NCCCl)OCCCN1CCCl (stereo unspecified) [Ifosfamide]" readout_value="> 10 µM"
compound="Nc1nc2[nH]cc(CCc3ccc(C(=O)N[C@@H](CCC(=O)O)C(=O)O)cc3)c2c(=O)[nH]1 [Pemetrexed]" readout_value="> 10 µM"
compound="O=C(O)C1(C(=O)O)CCC1.[NH2-].[NH2-].[Pt+2] [Carboplatin]" readout_value="> 10 µM"
compound="COc1cc(F)c(F)c(Nc2ccc(I)cc2F)c1NS(=O)(=O)C1(C[C@H](O)CO)CC1 [Refametinib (RDEA119)]" readout_value="> 10 µM"
compound="COc1cc([C@@H]2c3cc4c(cc3[C@@H](O[C@@H]3O[C@@H]5CO[C@@H](C)O[C@H]5[C@H](O)[C@H]3O)[C@H]3COC(=O)[C@H]23)OCO4)cc(OC)c1O [Etoposide]" readout_value="> 10 µM"
compound="CCC1(c2ccc(N)cc2)CCC(=O)NC1=O (stereo unspecified) [Aminoglutethimide]" readout_value="> 10 µM"

---

System: MCF-7
assay-method-text: relative IC50 (midpoint of fitted logistic curve, plateau may be below 50% inhibition; CellTiter-Glo viability); higher = less potent
particulars: 4-OH-tamoxifen in medium 1 µM; 72 h
observation-type: relative IC50 (nM)

compound="CO[C@H]1C[C@@H]2CC[C@@H](C)[C@@](O)(O2)C(=O)C(=O)N2CCCC[C@H]2C(=O)O[C@H]([C@H](C)C[C@@H]2CC[C@@H](O)[C@H](OC)C2)CC(=O)[C@H](C)/C=C(\\C)[C@@H](O)[C@@H](OC)C(=O)[C@H](C)C[C@H](C)/C=C/C=C/C=C/1C [Sirolimus (Rapamycin)]" observation_type="relative IC50" measurement_unit=nM result_modifier== readout_value=4.86
compound="COC(=O)c1ccc2c(c1)NC(=O)/C2=C(\\Nc1ccc(N(C)C(=O)CN2CCN(C)CC2)cc1)c1ccccc1 [Nintedanib (BIBF 1120)]" observation_type="relative IC50" measurement_unit=nM result_modifier=> readout_value=10000
compound="O=C(CCCCCCC(=O)Nc1ccccc1)NO [Vorinostat]" observation_type="relative IC50" measurement_unit=nM result_modifier== readout_value=1330
